Provide the reported FACS-Seq fitted mean (log10) of each item.
B1: library; a variant is named by its letters at N, in order (parent)
chain: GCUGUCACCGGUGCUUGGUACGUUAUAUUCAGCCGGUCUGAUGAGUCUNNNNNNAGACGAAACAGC

Variants of: B1
Assay: FACS-Seq fitted mean relative fluorescence mCherry/BFP without ligand (log10 relative fluorescence); HEK293T overexpressing SLC46A1; higher = higher reporter protein expression
Conditions: without (6R,S)-folinic acid; ligand present: no

Query string: I am curious: what FACS-Seq fitted mean (log10) value has been reported for GCUGUCACCGGUGCUUGGUACGUUAUAUUCAGCCGGUCUGAUGAGUCUGGACUAAGACGAAACAGC [GGACUA] ?
Result string: 0.287

Query string: I am curious: what FACS-Seq fitted mean (log10) value has been reported for GCUGUCACCGGUGCUUGGUACGUUAUAUUCAGCCGGUCUGAUGAGUCUUUAAAGAGACGAAACAGC [UUAAAG] ?
Result string: 0.413

Query string: I am curious: what FACS-Seq fitted mean (log10) value has been reported for GCUGUCACCGGUGCUUGGUACGUUAUAUUCAGCCGGUCUGAUGAGUCUUGUAAAAGACGAAACAGC [UGUAAA] ?
Result string: 0.596

Query string: I am curious: what FACS-Seq fitted mean (log10) value has been reported for GCUGUCACCGGUGCUUGGUACGUUAUAUUCAGCCGGUCUGAUGAGUCUGUCAUGAGACGAAACAGC [GUCAUG] ?
Result string: 0.406

Query string: I am curious: what FACS-Seq fitted mean (log10) value has been reported for GCUGUCACCGGUGCUUGGUACGUUAUAUUCAGCCGGUCUGAUGAGUCUCUAGGCAGACGAAACAGC [CUAGGC] ?
Result string: 0.0076

Source listed as the supplement of paper PMC6757056.
